protocol.summary: Oral bioavailability in C57BL/6J mouse at 20 to 30 mg/kg, iv measured upto 24 hrs by LC-MS/MS analysis
Type: ADME, organism-based
reported.conditions: in vivo, dose 20-30 mg/kg
measurement.name: bioavailability (%)
Give bare numbers, in %.

Would you kindly share the measured bioavailability for Cc1cc(F)c(Br)cc1NS(=O)(=O)c1ccc(NS(=O)(=O)c2cc(Cl)cc(Cl)c2)cc1CN1CCOC[C@H]1C ?
93
